# Test target: Calmodulin-1 (Homo sapiens) (UniProt P0DP23)
# Method: CALM1 binders on microarrays, EGTA buffer, profiling panel, biochemical, small-molecule microarray, Cy5-labelled CALM1 (AID 1111);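 note: labelled calmodulin applied in Tris saline Tween buffer holding calcium plus EGTA and DTT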
# Condition parameters: Cy5-CALM1 binding fluorescence, higher = more signal
Catalogue of composite z-score values
Could you respond with only the numeric value?

Some entries whose results are on file:
CC(C)=CCCC(C)=CCON=C1C[C@@H](O)[C@@H](O)[C@@H]2[C@@H]3C(=O)N(C[C@@H]4CCCO4)C(=O)[C@@H]3CC[C@@H]12 : -0.599
COc1ccc(-c2ccc3c(n2)CCCN3CC(O)CN2CCCc3nc(C)c(C)cc32)cc1 (stereo not drawn) : 0.0025
COc1ccc([Si](C)(C)[C@@H]2[C@@H](CC(=O)N3CCC[C@H]3CO)O[C@]3(C(=O)N(Cc4cccc(N5CCC5=O)c4)c4ccccc43)[C@H]2C)cc1 : 0.504
CCOC(=O)NN=C1C[C@@H](O)[C@@H](O)[C@@H]2[C@@H]3C(=O)N(C[C@@H]4CCCO4)C(=O)[C@@H]3CC[C@@H]12 : -0.375

Turning now to a further molecule:
Find the recorded composite z-score belonging to COC(=O)[C@H]1COC(c2ccc(OCCCO)cc2)=N1 and report it.
-0.545

* * *

# Test target: Calmodulin-1 (Homo sapiens)
# Method: calcium-bound CALM1 binders on microarrays, profiling panel, artefact control for SMM control-protein annotation, biochemical, small-molecule microarray, Cy5-labelled CALM1, plus calcium (AID 1112);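 note: score merges spot fluorescence with signal to noise from triplicate slides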
# Condition parameters: Cy5-CALM1 binding fluorescence, higher = more signal
Catalogue of composite z-score values

Some entries whose results are on file:
CCN1C(=O)[C@H]2[C@H]3[C@H](O)C=CC(=O)[C@@H]3CC[C@H]2C1=O : -0.528
CC(CCN1CCc2nc(-c3ccccc3)c(-c3ccccc3)cc2C1)=NOC(C)CN1CCCCc2nc(C)c(C)cc21 (centres undefined) : -0.0705
COc1cccc([C@@H]2Oc3ccc(Br)cc3C(=O)[C@H]2O)c1 : -0.246

Find the recorded composite z-score belonging to CN1C(=O)C2C=CC(C(O)c3ccc(Br)cc3)N(N(c3ccccc3)c3ccccc3)C2C1=O (centres undefined) and report it.
0.428

Okay, and COc1ccc([Si](C)(C)[C@H]2[C@H](CCO)O[C@@]3(C(=O)N(Cc4cccc(NC(=O)[C@H](C)O)c4)c4ccccc43)[C@@H]2C)cc1 ?
-0.14

Okay, and O=C1[C@H]2[C@H]3[C@H](O)[C@H](O)CC(=NOCc4ccccc4)[C@H]3CC[C@H]2C(=O)N1c1ccc(F)cc1F ?
-0.349

* * *

# Test system: Inhibin beta A chain (activin A)
# Method: INHBA (activin A) binders on microarrays, primary screen, biochemical, small-molecule microarray, 635 nm fluorescence scan (AID 1107);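 note: mouse activin A protein probed at 4.33 µg/mL on printed slides; score merges bound-protein fluorescence near 667 nm with spot signal-to-noise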
# Condition parameters: small-molecule microarray binding, higher = more signal
Value type: composite z-score

CC(CCN1CCc2nc(-c3ccccc3)c(-c3ccccc3)cc2C1)=NO[C@@H](C)c1cn([C@H](CO)Cc2ccccc2)nn1 : 1.13

Find the recorded composite z-score belonging to CCCCCN1CC=CC23O[C@@H]4C=CCOC(=O)[C@@H]4[C@H]2C(=O)N(C(CO)C(C)C)[C@@H]3C1=O (some centres undefined) and report it.
0.712

Okay, and COC(=O)[C@@]1(Cc2ccc(F)cc2)[C@H]2c3cc(C(=O)N(C)C)n(Cc4ccc(OC)c(OC)c4)c3C[C@H]2CN1C(=O)c1ccccc1 ?
0.939

Okay, and CCOC(=O)CCN1C(=O)[C@H]2[C@H]3[C@H](O)[C@H](O)CC(=O)[C@H]3CC[C@H]2C1=O ?
-0.0903

Okay, and [N-]=[N+]=NCc1ccccc1[C@@H]1OC(c2ccc(OCCCO)cc2)=N[C@]1(Cc1ccccc1)C(=O)N1CCOCC1 ?
0.182

Okay, and CC(C)=CCCC(C)=CCON=C1C[C@@H](O)[C@@H](O)[C@@H]2[C@@H]3C(=O)N(C[C@@H]4CCCO4)C(=O)[C@@H]3CC[C@@H]12 ?
1.52

Okay, and CCN1C(=O)[C@H]2[C@H]3[C@H](O)[C@H](O)CC(=NOCC=C(C)CCC=C(C)C)[C@H]3CC[C@H]2C1=O ?
1.1
